Entry source: patent US20110263610A1

TESTED_SYSTEM: ITPKb (Mus musculus, UniProt B2RXC2)
Construct: murine ITPKb residues 640-942; MGSDKIHHHHHH (His6 tag from MH4 plasmid) (N); made in house; host or cells: Escherichia coli HK100
Sequence (B2RXC2 640-942): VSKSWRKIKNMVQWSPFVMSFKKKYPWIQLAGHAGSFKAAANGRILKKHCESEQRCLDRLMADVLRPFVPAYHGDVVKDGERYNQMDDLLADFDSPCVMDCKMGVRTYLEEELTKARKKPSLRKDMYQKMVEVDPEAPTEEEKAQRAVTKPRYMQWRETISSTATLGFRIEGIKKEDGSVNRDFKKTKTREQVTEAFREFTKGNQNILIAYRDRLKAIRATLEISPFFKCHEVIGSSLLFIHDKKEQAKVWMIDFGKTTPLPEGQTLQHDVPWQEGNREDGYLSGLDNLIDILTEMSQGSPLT
ASSAY_METHOD_TEXT: Biochemical measurement of ITPKb activity (Kinase-Glo ATP depletion assay); inhibiting the phosphorylation of IP3 to IP4
Parameters: species or system murine
CONDITION_PARAMETERS: Table 1; inhibiting the phosphorylation of IP3 to IP4; read-out: IC50
Please respond with reported pIC50 for every item in the list.
When answering, recall that pIC50 equals minus log10 of the concentration in mol/L, and write that number alone.

Query: Endpoint output: pIC50 of C[C@@H]1CN(Cc2c[nH]nc2-c2ccc(C#N)c(=O)[nH]2)CCN1c1ccc(C(F)(F)F)cn1 . Value?
Reply: 7.31

Query: GET /values?readout=pIC50&item= C[C@@H]1CN(Cc2c[nH]nc2-c2ccc3cnccc3c2)CCN1c1ccc(C(F)(F)F)cn1
Reply: 7.96

Query: pIC50 lookup needed for NC(=O)c1c[nH]c(-c2n[nH]cc2CN2CCN(c3ccc(C(F)(F)F)cn3)[C@H](C(F)(F)F)C2)c1 , thanks.
Reply: 8.70

Query: Entry under review: C[C@@H]1CN(Cc2c[nH]nc2C2CCN(C=O)CC2)CCN1c1ccc(C(F)(F)F)cn1 . Reported pIC50?
Reply: 6.62

---

TESTED_SYSTEM: ITPKb (Mus musculus)
Construct: murine ITPKb residues 640-942; MGSDKIHHHHHH (His6 tag from MH4 plasmid) (N); made in house; host or cells: Escherichia coli HK100
ASSAY_METHOD_TEXT: Biochemical measurement of ITPKb activity (Kinase-Glo ATP depletion assay); inhibiting the phosphorylation of IP3 to IP4
Parameters: species or system murine
CONDITION_PARAMETERS: Table 2; inhibiting the phosphorylation of IP3 to IP4; read-out: IC50
MEASURED_ATTRIBUTE: pIC50
Interpret pIC50 as the negative base-10 log of the concentration measured in mol/L.

Query: Give its pIC50 value. Item: C[C@@H]1CN(Cc2c[nH]nc2-c2nc(C#N)c[nH]2)CCN1c1ccc(C(F)(F)F)cn1
Reply: 6.99

Query: I have this molecule here, C[C@@H]1CN(Cc2n[nH]nc2-c2ccc(C#N)cc2)CCN1c1ccc(C(F)(F)F)cc1 , and I need its recorded pIC50.
Reply: 7.40

Query: I would be grateful if you could share the reported pIC50 for C[C@@H]1CN(Cc2c[nH]nc2-c2nc3cnccc3[nH]2)CCN1c1ccc(C(F)(F)F)cn1 .
Reply: 6.01

Query: What value of pIC50 has been recorded for this entry: C[C@@H]1CN(Cc2c[nH]nc2C=C2NC(=O)NC2=O)CCN1c1ccc(C(F)(F)F)cn1
Reply: 6.27

Query: // query pIC50 value for entry C[C@@H]1CN(Cc2c[nH]nc2C(=O)Nc2ccncc2)CCN1c1ccc(C(F)(F)F)cn1
Reply: 6.35

Query: Field request: pIC50 | item: C[C@@H]1CN(Cc2c[nH]nc2-c2nc(-c3ccccc3)c[nH]2)CCN1c1ccc(C(F)(F)F)cn1
Reply: 5.91

Query: So what's the measured pIC50 for this one? C[C@@H]1CN(Cc2c[nH]nc2-c2cc3ccccc3[nH]2)CCN1c1ccc(C(F)(F)F)cn1
Reply: 6.72

Query: What measured pIC50 goes with C[C@@H]1CN(Cc2c[nH]nc2-c2nc(C(N)=O)c[nH]2)CCN1c1ccc(C(F)(F)F)cn1 ?
Reply: 7.62

---

TESTED_SYSTEM: ITPKb (Mus musculus, UniProt B2RXC2)
Construct: murine ITPKb residues 640-942; MGSDKIHHHHHH (His6 tag from MH4 plasmid) (N); made in house; host or cells: Escherichia coli HK100
ASSAY_METHOD_TEXT: Biochemical measurement of ITPKb activity (Kinase-Glo ATP depletion assay); inhibiting the phosphorylation of IP3 to IP4
Parameters: species or system murine
CONDITION_PARAMETERS: Table 2; inhibiting the phosphorylation of IP3 to IP4; read-out: IC50
Task for the reader: assign each of the following compounds its reported pIC50.
// scale note: pIC50 = -log10(conc_M); give the bare number

Query: Recorded pIC50 of C[C@@H]1CN(Cc2c[nH]nc2C2=CCN(C=O)CC2)CCN1c1ccc(C(F)(F)F)cn1 , please.
Reply: 8.00

Query: # lookup: pIC50 of C[C@@H]1CN(Cc2c[nH]nc2C2=CCNCC2)CCN1c1ccc(C(F)(F)F)cn1
Reply: 6.56

Query: What value of pIC50 has been recorded for this entry: C[C@@H]1CN(Cc2c[nH]nc2-c2nc(C(F)(F)F)c[nH]2)CCN1c1ccc(C(F)(F)F)cn1
Reply: 5.83

Query: I have this compound here, C[C@@H]1CN(Cc2c[nH]nc2-c2nc(C(=N)N)c[nH]2)CCN1c1ccc(C(F)(F)F)cn1 , and I need its recorded pIC50.
Reply: 6.32
